Assay: sensitizers of A549 cells to miR-34 induction, primary screen, imaging, A549 dox-inducible miR-34, nuclei and caspase counts (AID 1347080); also: test concentration not given here
Conditions: A549 miR-34 inducible, Hoechst nuclei count, 48 h; measured here: relative caspase fold change +Dox/-Dox
Response key: True means fold change >= 1; False means fold change < 1.

Completed entries (count: 5):
{"COMPOUND": "CN[C@@H]1[C@@H](O)[C@@H](O[C@@H]2[C@@H](O)[C@H](O[C@H]3O[C@H]([C@@H](C)NC)CC[C@H]3N)[C@@H](N)C[C@H]2N)OC[C@]1(C)O (tested in a mixture with another compound)", "CLASS NAME": "False"}
{"COMPOUND": "C=CCN1CC[C@]23c4c5ccc(O)c4O[C@H]2/C(=N/NC(=O)c2ccccc2)CC[C@@]3(O)[C@H]1C5", "CLASS NAME": "False"}
{"COMPOUND": "C/C=C1/C[C@@H](C)[C@](O)(CO)C(=O)OCC2=CCN3CC[C@@H](OC1=O)[C@@H]23", "CLASS NAME": "True"}
{"COMPOUND": "CC(=O)OCC(=O)[C@H]1CC[C@H]2[C@@H]3CC[C@H]4C[C@H](O)CC[C@]4(C)[C@H]3C(=O)C[C@]12C", "CLASS NAME": "False"}
{"COMPOUND": "CCOC(=O)CC(SP(=S)(OC)OC)C(=O)OCC (stereo not drawn)", "CLASS NAME": "False"}

I'd appreciate it if you could say whether CCC1C=CC=CCC(C)C(O)[C@@](C)(O)C(=O)C(C)[C@@H](O)C(C)C(=O)C(C)C(O)C(C)C=CC(=O)OC2C(C)[C@]3(CCC(C)C(CC(C)O)O3)OC(CC1)[C@H]2C (stereo partly drawn) has fold change at least equal to 1.
False

Let us now turn to COc1cc2c(cc1OC)[C@@]13CCN4CC5=CCOC6CC(=O)N2C1C6C5CC43 (stereo partly drawn)
True

Let us now turn to CCCCC/C=C\C/C=C\C/C=C\C/C=C\CCCC(=O)Nc1cccc([N+](=O)[O-])c1
False
